system: Sk-Hep1; assay: MTT cell viability, Sk-Hep1; type: cell-based; conditions: Homo sapiens, 48 h
measured endpoint: IC50 (nM)

| entry smiles | quantity unit | endpoint result |
| --- | --- | --- |
| C#Cc1cccc(Nc2nc3ccccc3nc2Nc2cccc(C#C)c2)c1 | nM | 1200 |

---

test system: A549; assay: cell viability of A549 cells, 1 and 10 uM; type: cell-based; details: Homo sapiens, 10 uM
Each record here notes measured viability at 10 µM.
measured endpoint: viability at 10 µM (%)

| entry smiles | endpoint result |
| --- | --- |
| COc1ccc(Nc2nc3ccc([N+](=O)[O-])cc3nc2Nc2cccc(O)c2)cc1 | 10.3 |
| FS(F)(F)(F)(F)c1ccc(Nc2nc3ccccc3nc2Cl)cc1 | 69.4 |
| Cc1ccc(Nc2nc3ccccc3nc2Nc2ccc(C)c(O)c2)cc1O | 11.1 |
| c1ccc(Oc2ccc(Nc3nc4ccccc4nc3Nc3ccc(Oc4ccccc4)cc3)cc2)cc1 | 82.7 |
| Nc1ccc2nc(Nc3ccc(C(F)(F)F)cc3)c(Nc3ccc(C(F)(F)F)cc3)nc2c1 | 9.5 |
| Clc1cc(Cl)cc(Nc2nc3ccccc3nc2Cl)c1 | 94.7 |
| O=[N+]([O-])c1ccc2nc(Nc3cccc(Br)c3)c(Nc3cccc(Br)c3)nc2c1 | 26.9 |
| N#CCc1ccc(Nc2nc3ccccc3nc2Nc2ccc(CC#N)cc2)cc1 | 120 |
| COC(=O)c1ccc2nc(Nc3ccc(OC(F)(F)F)cc3)c(Nc3ccc(OC(F)(F)F)cc3)nc2c1 | 10.8 |
| CCc1cccc(Nc2nc3ccccc3nc2Nc2cccc(CC)c2)c1 | 24.1 |
| c1ccc(Nc2nc3ccccc3nc2Nc2ccccc2)cc1 | 36.5 |
| FC(F)(F)Oc1ccc(Nc2nc3ccccc3nc2Cl)cc1 | 83.4 |
| COc1cccc(Nc2nc3ccc([N+](=O)[O-])cc3nc2Nc2cccc(OC)c2)c1 | 10.3 |
| FC(F)(F)c1cc(Nc2nc3ccccc3nc2Nc2ccc(Cl)c(C(F)(F)F)c2)ccc1Cl | 21.9 |
| C#Cc1cccc(Nc2nc3ccc([N+](=O)[O-])cc3nc2Nc2cccc(C#C)c2)c1 | 132 |
| FC(F)(F)Oc1ccc(Nc2nc3ccccc3nc2Nc2ccc(OC(F)(F)F)cc2)cc1 | 27.7 |
| FS(F)(F)(F)(F)c1ccc(Nc2nc3ccccc3nc2Nc2ccc(S(F)(F)(F)(F)F)cc2)cc1 | 32.9 |
| FC(F)(F)c1cccc(Nc2nc3ccccc3nc2Nc2cccc(C(F)(F)F)c2)c1 | 21.8 |

These measurements were taken from patent US10189795B2.
